Cited source for all entries: patent US9872514B2

# Tested on: bitter taste of an aqueous solution of KCl
# Experimental protocol: Sip and spit bitterness rating of aqueous KCl test solutions
# Type: in vivo, humans
# Recorded conditions: Homo sapiens; aqueous KCl 4.85 g/L, 1% EtOH; bitterness scored 0-15 vs KCl standard; dash = none of the tested conc.; read-out: Conc. Where Decrease in Bitter Taste Discerned and p ≦ 0.1
# Method: An amount of this stock compound solution is then added to an aqueous KCl solution. Enough EtOH is then added to the resulting stock compound/KCl solution so that the final KCl test solution contains 1% EtOH. […] The effect of the test compounds an the perception of the bitter taste of an aqueous solution of KCl in humans was evaluated using a “sip and spit” test as follows. […]
Label scheme for minimal effective concentration: lower than 1 µg/mL is f, 1 µg/mL and above is t.

>  <Molecule>
CC(C)=CCCC(C)CCOC(=O)C(C)C (stereo not shown) [Compound 11]

>  <Cat>
t

$$$$
>  <Molecule>
CC(=O)OC/C=C(\C)CCC[C@H](C)CCC[C@H](C)CCCC(C)C [Compound 41]

>  <Cat>
t

$$$$
>  <Molecule>
C=C1CC[C@H]2O[C@]2(C)CC[C@@H]2[C@@H]1CC2(C)C [Compound 121]

>  <Cat>
t

$$$$
>  <Molecule>
O=C1CC(C(=O)O)C(C(=O)O)O1 (stereo not shown) [Compound 133]

>  <Cat>
t

$$$$
>  <Molecule>
C/C=C/C(=O)C1=C(C)CCCC1(C)C [Compound 1]

>  <Cat>
f

$$$$

# next molecule below
Qu. Does the molecule O=C1CCc2ccccc2O1 [Compound 53] have recorded minimal effective concentration that is 1 µg/mL or more?
Ans. t
